Overview of reported IC50 across a group of compounds:
systemTested: TEAD1 (Homo sapiens, UniProt P28347)
Sequence (P28347 whole entry, species assumed): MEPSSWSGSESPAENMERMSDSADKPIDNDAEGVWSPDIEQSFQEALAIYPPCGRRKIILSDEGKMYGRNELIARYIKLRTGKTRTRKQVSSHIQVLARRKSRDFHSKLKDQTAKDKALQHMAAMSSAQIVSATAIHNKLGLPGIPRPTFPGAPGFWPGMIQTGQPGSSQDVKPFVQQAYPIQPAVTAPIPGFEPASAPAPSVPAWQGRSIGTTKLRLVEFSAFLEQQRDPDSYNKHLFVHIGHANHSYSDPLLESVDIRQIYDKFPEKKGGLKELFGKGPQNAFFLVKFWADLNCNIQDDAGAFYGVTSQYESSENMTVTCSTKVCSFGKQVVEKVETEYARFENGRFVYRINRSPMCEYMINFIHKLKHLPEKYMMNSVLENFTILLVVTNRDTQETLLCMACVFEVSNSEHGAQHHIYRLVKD
Answers without a unit are incomplete; give the number and then its unit.

Report its IC50 with TEAD1 (Homo sapiens, UniProt P28347) as the test system: C=CC(=O)NCc1cc(-c2ccc(OC(F)(F)F)cc2)c2ncn(C)c2c1[C@H](C)O (single isomer, unassigned)
140 nM

Others:
Name the value of IC50 reported for CN(Cc1cc(-c2ccc(OC(F)(F)F)cc2)c2ncn(C)c2c1CO)C(=O)/C=C/CO when tested on TEAD1 (Homo sapiens, UniProt P28347).
270 nM

# lookup: TEAD1 (Homo sapiens, UniProt P28347) IC50, key = C#Cc1ccc(-c2cc(CN(C)C(=O)C=C)c(CO)c3c2OCC3)cc1
44 nM

Please respond with reported IC50 (system TEAD1 (Homo sapiens, UniProt P28347)) for C=CC(=O)NCc1cc(Oc2ccc(C(F)(F)F)cc2)c2ncccc2c1[C@@H](O)CO (single isomer, unassigned) .
36 nM

---

systemTested: TEAD3 (Homo sapiens)
Sequence (Q99594 whole entry, species assumed): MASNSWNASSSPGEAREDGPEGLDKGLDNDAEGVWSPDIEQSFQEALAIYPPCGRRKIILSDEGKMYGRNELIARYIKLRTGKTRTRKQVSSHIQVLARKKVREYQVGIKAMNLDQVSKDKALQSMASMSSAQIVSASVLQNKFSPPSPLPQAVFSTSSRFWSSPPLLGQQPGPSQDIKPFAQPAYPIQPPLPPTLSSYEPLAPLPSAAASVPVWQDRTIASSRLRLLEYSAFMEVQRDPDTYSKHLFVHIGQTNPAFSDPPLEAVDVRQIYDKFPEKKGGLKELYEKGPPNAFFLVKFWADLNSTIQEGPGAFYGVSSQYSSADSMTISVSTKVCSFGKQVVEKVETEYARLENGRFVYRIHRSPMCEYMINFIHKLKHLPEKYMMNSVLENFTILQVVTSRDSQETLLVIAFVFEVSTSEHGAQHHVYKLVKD
experimentNotes: TR-FRET (Lipid HTRF) TEAD lipid pocket probe displacement assay, TEAD3
Type: binding
recordedConditions: His-tagged TEAD3, biotinylated lipid pocket probe, 4 hours
Decide using IC50 alone. Strictly below 100 nM: satisfied. Equal to or above 100 nM: not satisfied.

Worked examples, 6 molecules total:
Dear reviewer, please state whether C=CC(=O)NCc1cc(-c2ccc(OC(F)(F)F)cc2)c2ncoc2c1[C@H](O)CO (single isomer, unassigned) [Compound 105] has IC50 strictly beneath 100 nM.
satisfied

Decide: IC50 of C=CC(=O)NCc1cc(-c2ccc(OC(F)(F)F)cc2)c2c(c1-n1ccnc1)CCO2 [Compound 23] strictly below 100 nM?
not satisfied

For this molecule, is IC50 lower than 100 nM? C=CC(=O)N(C)Cc1cc(-c2ccc(OC(F)(F)F)cc2)c2c(c1CO)CCO2 [Compound 88]
satisfied

Just wondering, is IC50 of C=C(F)C(=O)NCc1cc(-c2ccc(OC(F)(F)F)cc2)c2nccnc2c1[C@@H](O)CO [Compound 80] below 100 nM?
not satisfied

Hello, I'm reviewing records and need to know if IC50 of C=CC(=O)NCc1cc(-c2ccc(OC(F)(F)F)cc2)c2ncn(C)c2c1[C@@H](C)O (single isomer, unassigned) [Compound 138] is below 100 nM. Could you check?
not satisfied

State whether 100 nM exceeds IC50 recorded for C=CC(=O)NCc1cc(-c2ccc(OC(F)(F)F)cc2)c2ncccc2c1C#N [Compound 16] .
satisfied

Continuing:
Determine if Cn1cnc2c(-c3ccc(OC(F)(F)F)cc3)nc(C3CN(C(=O)C4=CCC4)C3)nc21 [Compound 115] shows IC50 strictly lower than 100 nM.
satisfied

---

systemTested: TEAD2 (Homo sapiens, UniProt Q15562);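 further: TR-FRET competition assay with His-tagged TEAD protein and a biotinylated lipid pocket probe, where probe displacement by compound lowers the signal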
Sequence (Q15562 whole entry, species assumed): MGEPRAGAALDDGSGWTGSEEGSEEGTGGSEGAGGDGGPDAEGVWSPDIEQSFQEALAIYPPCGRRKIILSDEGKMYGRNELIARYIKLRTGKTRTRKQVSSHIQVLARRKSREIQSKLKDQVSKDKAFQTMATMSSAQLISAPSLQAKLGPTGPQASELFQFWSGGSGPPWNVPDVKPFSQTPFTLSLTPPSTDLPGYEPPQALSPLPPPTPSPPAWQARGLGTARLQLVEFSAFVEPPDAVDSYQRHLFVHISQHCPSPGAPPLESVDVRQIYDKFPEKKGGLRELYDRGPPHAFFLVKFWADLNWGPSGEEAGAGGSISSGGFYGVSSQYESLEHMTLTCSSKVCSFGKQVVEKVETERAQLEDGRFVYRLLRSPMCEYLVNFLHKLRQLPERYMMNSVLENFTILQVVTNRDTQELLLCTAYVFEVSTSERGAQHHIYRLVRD
experimentNotes: biochemical
Recorded log10 of IC50 for the following molecules
Base-10 log of IC50, unit nM.

Worked cases, answers included:
Tell me its log10 of IC50 given C=CC(=O)NCc1cc(-c2ccc(OC(F)(F)F)cc2)c2ncn(C)c2c1[C@@H](C)O (single isomer, unassigned) [Compound 138] as the entry.
1.00

Quote log10 of IC50 reported for C=CC(=O)NCc1cc(-c2ccc(C(F)(F)F)cc2)c2ncoc2c1[C@H](O)CO (single isomer, unassigned) [Compound 109] please.
1.76

Output log10 of IC50 of C=CC(=O)NCc1cc(-c2ccc(OC(F)(F)F)cc2)c2c(c1CO)CCO2 [Compound 12]
1.26

***
Annotate the molecule C=CC(=O)NCc1nc2c(c(-c3ccc(OC(F)(F)F)cc3)n1)OCC2 [Compound 13] with its measured log10 of IC50.
2.51

Return value of log10 of IC50 for input C=CC(=O)NCc1cc(-c2ccc(OC(F)(F)F)cc2)c2c(c1[C@@H](O)CC#N)CCO2 (single isomer, unassigned) [Compound 92] , no commentary.
1.20

Item C=CC(=O)NCc1cc(-c2ccc(OC(F)(F)F)cc2)c2cccnc2c1[C@@H](O)CO (single isomer, unassigned) [Compound 46] : provide log10 of IC50
0.79

Give reported log10 of IC50 value for Cn1cnc2c(-c3ccc(OC(F)(F)F)cc3)cn(C3CN(C(=O)/C=C/CO)C3)c(=O)c21 [Compound 137]
1.97
